Reference source for all entries: patent EP0039857A1

Answer each item with its documented Hemmwerte in % gegen Esterase.
# Tested on: Esterase aus Schweineleber (Carboxylic-esterhydrolase EC 3.1.1.1)
# test-method-notes: Enzyme inhibition test, esterase (acidimetric comparison with control)
# Type: biochemical, Schwein
# details: 2 500 ppm test substance; substrate Citronensäuretriethylester; enzyme 1 mg in 16 ml
Output spec: scalar in %, unitless text.

Sample CCN(CC)C(=O)Cc1ccc(Cl)cc1 [Produkt A, p-Chlorphenylacet-diethylamid] — what was its Hemmwerte in % gegen Esterase?
77

Sample CCN(CC)C(=O)COc1ccc(Cl)cc1 [Produkt F, p-Chlor-phenoxyacet-diethylamid] — what was its Hemmwerte in % gegen Esterase?
65

Sample CCN(CC)C(=O)CC(c1ccccc1)c1ccccc1 [Produkt C, 3,3-Diphenyl-propionsäure-diethylamid] — what was its Hemmwerte in % gegen Esterase?
57

Sample CCN(CC)C(=O)C(C)(C)Oc1ccc(Cl)cc1 [Produkt D] — what was its Hemmwerte in % gegen Esterase?
11

Sample CCN(CC)C(=O)C(C)(C)Sc1ccc(Cl)cc1 [Produkt E] — what was its Hemmwerte in % gegen Esterase?
30

Sample CCN(CC)C(=O)COc1ccc(C)c(C)c1 [Produkt G, 3,4-Dimethyl-phenoxyacet-diethylamid] — what was its Hemmwerte in % gegen Esterase?
48

Sample CCOC(=O)C(O)(c1ccccc1)c1ccccc1 [Produkt H, Benzilsäure-ethylester] — what was its Hemmwerte in % gegen Esterase?
54

Sample CCN(CC)C(=O)Cc1ccc(OC)c(OC)c1 [Produkt B, 3,4-Dimethoxy-phenylacet-diethylamid] — what was its Hemmwerte in % gegen Esterase?
60
